Measured growth inhibition, listed per entry for reference.
- Assay Details: NCI Yeast Anticancer Drug Screen. Data for the rad50 strain (AID 155);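 note: 0% = growth of vehicle-only cultures of the same strain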
- Run Parameters: S. cerevisiae rad50 strain growth inhibition; at 1.2 µM; stronger effect = higher value
Compounds without any hit were thinned out: in the full panel of roughly 79,000, 15% have a hit.
Return type: number; implicit unit %.

Some solved cases for reference:
INSERT INTO results (compound, value) VALUES
  ('Cc1ccc(C2C(Cl)C(=O)N2n2cnc3ccccc3c2=O)cc1 (centres undefined)', -2),
  ('O=C(NCCCNCCCNC(=O)c1cc(-c2ccccc2)nc2ccccc12)c1cc(-c2ccccc2)nc2ccccc12', -3),
  ('CCCCCCc1cc(C(=O)OC/C(C)=N/NC(N)=O)c2ccccc2n1', -3);

// next entry
Please list growth inhibition recorded for the compound NNc1c(F)c(F)cc(F)c1F
-15

---

- Assay Details: NCI Yeast Anticancer Drug Screen. Data for the bub3 strain (AID 167)
- Run Parameters: S. cerevisiae bub3 mutant strain, at 50.0 µM, stronger effect = higher value
Compounds without any hit were thinned out: in the full panel of roughly 79,000, 15% have a hit.
Recorded growth inhibition determines the label; the label ranges are class A: < 70%; class B: ≥ 70% and < 90%; class C: ≥ 90%

Here are 3 compounds together with their reported answers.
INSERT INTO measurements (compound, label) VALUES
  ('Cc1ccc2ccc(O)cc2c1', 'class B'),
  ('CC(=O)OCC(=O)C1(O)CCC2C3CCC4CCCCC4(C)C3CCC21C (stereo unspecified)', 'class B'),
  ('COc1cc(C2C3=C(COC3=O)Oc3cc4c(cc32)OCO4)ccc1O (stereo unspecified)', 'class A');

Which class holds CC(=O)OCCOCNC(=S)N/N=C(\C)c1cnccn1 ?
class B

For this compound, which bin applies? COP(=O)(OC)/C(=C\C1=CN(C(c2ccccc2)(c2ccccc2)c2ccccc2)CN1)NC=O
class C

Category lookup for the compound CC[C@@]1(O)C(=O)OCc2c1cc1n(c2=O)Cc2cc3c(N)cccc3nc2-1
class A

Using the reported growth inhibition, which band applies to O=C1c2ccccc2C(=O)c2cc(CBr)ccc21 ?
class B

---

- Assay Details: NCI Yeast Anticancer Drug Screen. Data for the rad50 strain (AID 155);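 note: 0% = growth of vehicle-only cultures of the same strain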
- Run Parameters: S. cerevisiae rad50 strain growth inhibition; at 33.0 µM; stronger effect = higher value
Compounds without any hit were thinned out: in the full panel of roughly 79,000, 15% have a hit.
# reported growth inhibition; entries follow
I only need the number, in %, no unit after it.

For orientation, consider the following solved cases.
INSERT INTO assay_data (compound, units, value) VALUES
  ('Brc1ccc(-c2cc3c(cc2C2SCCS2)OCO3)cc1', '%', 14),
  ('CNC(=O)OCc1c(COC(=O)NC)c(-c2ccc(Cl)c(Cl)c2)n2c1CCC2', '%', 87),
  ('CCC(=O)OCCn1c2nc(=O)[nH]c(=O)c-2nc2cc(C)c(C)cc21', '%', 15),
  ('CCN(CC)[P+](c1ccccc1O)(N(CC)CC)N(CC)CC', '%', 54),
  ('CC(C)/C(Cl)=N\OC(=O)Nc1ccccc1F', '%', 43);

Determine from records and report growth inhibition for CCOC(=O)C(NC(=O)c1ccccc1)(N1CCN(c2cc3c(cc2F)c(=O)c(C(=O)O)cn3C2CC2)CC1)C(F)(F)F (configuration not stated)
47

Tell me its growth inhibition given CC1(Cl)CC(O)C2(CC1Br)C1(C)OC1C1OC1(Br)C2(C)C (configuration not stated) as the entry.
73

Please report growth inhibition for the following compound: O=C(CCCN1CCC2(CC1)CC(=O)N(N1CCCCCC1)C2=O)c1ccc(F)cc1
49

Look up and report measured growth inhibition for this entry: CSC(=S)Nc1cccc(C)n1
28
